- method_description: absorption spectrum (maximum absorption wavelength, molar extinction coefficient)
- Type: physicochemical
reported_metric: maximum absorption wavelength (nm)
All answers are understood in nm, so give the number only.

Q. What does the data say about its maximum absorption wavelength? Entry: COCCOCCOCCOCCOCCOCCOCCOCCOCCOCCOCCOCCOCCOCCOCCOCCOC(=O)C1CCC(CNc2c3c4c5c(c(OC)c(=O)c6c(NCC7CCC(C(=O)OCCOCCOCCOCCOCCOCCOCCOCCOCCOCCOCCOCCOCCOCCOCCOCCOC)CC7)cc(OC)c(c7c(OC)cc(O)c(c2=O)c74)c65)CC(C)=C3)CC1 (stereo not drawn) [HC-13d-PEG16]
A. 625

Q. What does the data say about its maximum absorption wavelength? Entry: COCCOCCOCCOCCOCCOCCOCCC(=O)N1CCC(CNc2c3c4c5c(c(OC)c(=O)c6c(O)cc(OC)c(c7c(OC)cc(NCC8CCN(C(=O)CCOCCOCCOCCOCCOCCOCCOC)CC8)c(c2=O)c74)c65)C(C(C)=O)C(C)=C3)CC1 (stereo not drawn) [HB-31c-PEG6]
A. 632

Q. What does the data say about its maximum absorption wavelength? Entry: COc1c(NCCCC(=O)NCCCCS(=O)(=O)O)c2c(=O)cc(OC)c3c4c(OC)cc(=O)c5c(O)c(NCCCC(=O)NCCCCS(=O)(=O)O)c6c(c(c1CC(C)=C6)c23)c54
A. 624

Q. What does the data say about its maximum absorption wavelength? Entry: COCCOCCOCCOCCOCCOCCOCCOCCOCCOCCOCCOCCOC(=O)CCCNc1c2c3c4c(c(OC)c(=O)c5c(O)cc(OC)c(c6c(OC)cc(NCCCC(=O)OCCOCCOCCOCCOCCOCCOCCOCCOCCOCCOCCOCCOC)c(c1=O)c63)c54)C(C(C)=O)C(C)=C2 (stereo not drawn)
A. 628

Q. What does the data say about its maximum absorption wavelength? Entry: COCCOCCOCCOCCOCCOCCOC(=O)CCCNc1c2c3c4c(c(OC)c(=O)c5c(NCCCC(=O)OCCOCCOCCOCCOCCOCCOC)cc(OC)c(c6c(OC)cc(O)c(c1=O)c63)c54)CC(C)=C2
A. 624

Q. What does the data say about its maximum absorption wavelength? Entry: CCNc1c(NC2CCCC2)c2c(=O)cc(OC)c3c4c(OC)cc(=O)c5c(O)c(OC)c6c(c(c1C=C(C)C6C(C)=O)c23)c54 (stereo not drawn) [HB-44a]
A. 628

----------
- method_description: absorption spectrum (maximum absorption wavelength, molar extinction coefficient)
- Type: physicochemical
reported_metric: molar extinction coefficient

Q. What does the data say about its molar extinction coefficient? Entry: COc1c(O)c2c(=O)cc(OC)c3c4c(OC)cc(=O)c5c(NC6CCCC(C(=O)O)C6)c(NC6CCCC(C(=O)O)C6)c6c(c(c1C(C(C)=O)C(C)=C6)c23)c54 (stereo not drawn) [HB-15a]
A. 27,000 M^−1cm^−1

Q. What does the data say about its molar extinction coefficient? Entry: COCCOCCOCCOCCOCCNC(=O)C1CCC(CNc2c(O)c3c(=O)cc(OC)c4c5c(OC)cc(=O)c6c(NCC7CCC(C(=O)NCCOCCOCCOCCOCCOC)CC7)c(OC)c7c(c(c2C=C(C)C7C(C)=O)c34)c65)CC1 (stereo not drawn) [HB-13b-NH-PEG4]
A. 31,000 M^−1cm^−1

Q. What does the data say about its molar extinction coefficient? Entry: COc1c(O)c2c(=O)cc(OC)c3c4c(OC)cc(=O)c5c(NCc6cccc[n+]6C)c(NCc6cccc[n+]6C)c6c(c(c1C(C(C)=O)C(C)=C6)c23)c54 (stereo not drawn) [HB-38a-N^+]
A. 22,000 M^−1cm^−1

----------
Please provide measured maximum absorption wavelength for the entries that follow.
- method_description: absorption spectrum (maximum absorption wavelength, molar extinction coefficient)
- Assay type: physicochemical
All answers are understood in nm, so give the number only.

Q. What does the data say about its maximum absorption wavelength? Entry: COc1c2c3c4c(c(NC(CCC(=O)O)C(=O)O)c(=O)c5c(NC(CCC(=O)O)C(=O)O)cc(OC)c(c6c(OC)cc(O)c(c1=O)c63)c54)C=C(C)C2C(C)=O (centres unmarked) [HB-28c]
A. 625

Q. What does the data say about its maximum absorption wavelength? Entry: COCCOCCC(=O)N1CCC(CNc2c(NCC3CCN(C(=O)CCOCCOC)CC3)c3c(=O)cc(OC)c4c5c(OC)cc(=O)c6c(O)c(OC)c7c(c(c2C=C(C)C7C(C)=O)c34)c65)CC1 (centres unmarked) [HB-31a-PEG1]
A. 622

Q. What does the data say about its maximum absorption wavelength? Entry: COCCOCCOCCOCCOCCOCCOC(=O)CCCNc1c2c3c4c(c(OC)c(=O)c5c(O)cc(OC)c(c6c(OC)cc(NCCCC(=O)OCCOCCOCCOCCOCCOCCOC)c(c1=O)c63)c54)C(C(C)=O)C(C)=C2 (centres unmarked)
A. 630

Q. What does the data say about its maximum absorption wavelength? Entry: COc1c(NCCNCCOCCOCCOCCOCCO)c2c(=O)cc(OC)c3c4c(OC)cc(=O)c5c(O)c(NCCNCCOCCOCCOCCOCCO)c6c(c(c1C(C(C)=O)C(C)=C6)c23)c54 (centres unmarked)
A. 625

Q. What does the data say about its maximum absorption wavelength? Entry: COc1c2c3c4c(c(NCCCC(=O)O)c(=O)c5c(NCCCC(=O)O)cc(OC)c(c6c(OC)cc(O)c(c1=O)c63)c54)C=C(C)C2
A. 618

Q. What does the data say about its maximum absorption wavelength? Entry: COc1c(O)c2c(=O)cc(OC)c3c4c(OC)cc(=O)c5c(NCc6cccc[n+]6CCCC(=O)O)c(NCc6cccc[n+]6CCCC(=O)O)c6c(c(c1C(C(C)=O)C(C)=C6)c23)c54 (centres unmarked) [HB-38a-N—COOH]
A. 620

Q. What does the data say about its maximum absorption wavelength? Entry: COc1c(O)c2c(=O)cc(OC)c3c4c(OC)cc(=O)c5c(NC(CO)C(=O)O)c(NC(CO)C(=O)O)c6c(c(c1C(C(C)=O)C(C)=C6)c23)c54 (centres unmarked) [HB-23a]
A. 625

Q. What does the data say about its maximum absorption wavelength? Entry: COc1c2c3c4c(c(NCc5cccc[n+]5C)c(=O)c5c(NCc6cccc[n+]6C)cc(OC)c(c6c(OC)cc(O)c(c1=O)c63)c54)C=C(C)C2C(C)=O (centres unmarked) [HB-38c-N^+]
A. 622

Q. What does the data say about its maximum absorption wavelength? Entry: COc1c2c3c4c(c(NCCCC(=O)NCCCCS(=O)(=O)O)c(=O)c5c(O)cc(OC)c(c6c(OC)cc(NCCCC(=O)NCCCCS(=O)(=O)O)c(c1=O)c63)c54)C=C(C)C2
A. 626

Q. What does the data say about its maximum absorption wavelength? Entry: COc1c2c3c4c(c(NCCCCS(=O)(=O)O)c(=O)c5c(O)cc(OC)c(c6c(OC)cc(NCCCCS(=O)(=O)O)c(c1=O)c63)c54)C=C(C)C2C(C)=O (centres unmarked) [HB-11d-C4-SO3H]
A. 626

Q. What does the data say about its maximum absorption wavelength? Entry: COc1c2c3c4c(c(NCCC5CCC(O)CC5)c(=O)c5c(O)cc(OC)c(c6c(OC)cc(NCCC7CCC(O)CC7)c(c1=O)c63)c54)C=C(C)C2C(C)=O (centres unmarked) [HC-18d]
A. 622

----------
- method_description: absorption spectrum (maximum absorption wavelength, molar extinction coefficient)
- Assay type: physicochemical
reported_metric: maximum absorption wavelength (nm)
All answers are understood in nm, so give the number only.

Q. What does the data say about its maximum absorption wavelength? Entry: COc1c2c3c4c(c(NC5CCCCC5C(=O)O)c(=O)c5c(O)cc(OC)c(c6c(OC)cc(NC7CCCCC7C(=O)O)c(c1=O)c63)c54)C=C(C)C2C(C)=O (stereo not shown) [HB-16d]
A. 625

Q. What does the data say about its maximum absorption wavelength? Entry: COc1c2c3c4c(c(NC(C(=O)O)C(C)C)c(=O)c5c(O)cc(OC)c(c6c(OC)cc(NC(C(=O)O)C(C)C)c(c1=O)c63)c54)C=C(C)C2C(C)=O (stereo not shown) [HB-22d]
A. 625

Q. What does the data say about its maximum absorption wavelength? Entry: COc1c(O)c2c(=O)cc(OC)c3c4c(OC)cc(=O)c5c(NCCCC(=O)NCCS(=O)(=O)O)c(NCCCC(=O)NCCS(=O)(=O)O)c6c(c(c1CC(C)=C6)c23)c54
A. 620

Q. What does the data say about its maximum absorption wavelength? Entry: COc1c(NC2CCC(O)CC2)c2c(=O)cc(OC)c3c4c(OC)cc(=O)c5c(O)c(NC6CCC(O)CC6)c6c(c(c1C(C(C)=O)C(C)=C6)c23)c54 (stereo not shown) [HB-17b]
A. 620

Q. What does the data say about its maximum absorption wavelength? Entry: COc1c(O)c2c(=O)cc(OC)c3c4c(OC)c(Br)c(=O)c5c(NCCNCCOCCO)c(NCCNCCOCCO)c6c(c(c1C(C(C)=O)C(C)=C6)c23)c54 (stereo not shown)
A. 622

Q. What does the data say about its maximum absorption wavelength? Entry: COc1c(O)c2c(=O)cc(OC)c3c4c(OC)cc(=O)c5c(NC6CCC(O)CC6)c(NC6CCC(O)CC6)c6c(c(c1C(C(C)=O)C(C)=C6)c23)c54 (stereo not shown) [HB-17a]
A. 617

Q. What does the data say about its maximum absorption wavelength? Entry: COC(=O)C1CCC(CNc2c3c4c5c(c(OC)c(=O)c6c(O)cc(OC)c(c7c(OC)cc(NCC8CCC(C(=O)OC)CC8)c(c2=O)c74)c65)C(C(C)=O)C(C)=C3)CC1 (stereo not shown) [HB-13c-AcE]
A. 621
